Values compiled from patent US20200207859A1.

System: K562 (CML)
Assay: Cell killing assay (cell proliferation, Cell Titer-Glo)
Format: cell-based
Settings: 72 hrs
pIC50: −log10 of the molar value.
PROPERTY: pIC50

Example entries and their recorded answers appear below.
MOLECULE	RECORDED_RESULT
Conjugate C: anti-CD74 IgG containing residue 30 conjugated to a val-cit-PAB-hemiasterlin precursor (conjugate, non-natural residues) VH: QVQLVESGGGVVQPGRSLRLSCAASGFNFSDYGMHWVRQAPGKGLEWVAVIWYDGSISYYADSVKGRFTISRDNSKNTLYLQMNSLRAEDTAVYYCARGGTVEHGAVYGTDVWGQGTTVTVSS VL: DIQMTQSPSSVSASVGDRVTITCRASQGIGSWLAWYQQKPGKAPKLLIYAADRLQSGVPSRFSGSGSGTDFTLTISSLQPEDFATYYCQQYHTYPLTFGGGTKVEIK	< 7.30
Conjugate A: anti-CD74 IgG with pAMF at heavy chain EU position 404 conjugated to DBCO-PEG4-maytansine (conjugate, non-natural residues) VH: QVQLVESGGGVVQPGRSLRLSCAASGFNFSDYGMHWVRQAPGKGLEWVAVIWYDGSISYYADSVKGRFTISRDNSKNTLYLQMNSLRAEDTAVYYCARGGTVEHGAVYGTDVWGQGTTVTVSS VL: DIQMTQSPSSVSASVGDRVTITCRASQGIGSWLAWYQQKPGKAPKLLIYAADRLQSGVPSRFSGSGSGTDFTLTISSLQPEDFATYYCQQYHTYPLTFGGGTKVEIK	< 7.30

Now turn to the next molecule.
**Q:** Could you share which pIC50 value was measured for Conjugate E: anti-CD74 IgG containing residue 30 conjugated to a PEG4-MMAF precursor (conjugate) VH: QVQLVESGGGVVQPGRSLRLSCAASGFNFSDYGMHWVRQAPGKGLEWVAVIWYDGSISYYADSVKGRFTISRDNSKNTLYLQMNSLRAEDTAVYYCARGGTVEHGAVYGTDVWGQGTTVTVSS VL: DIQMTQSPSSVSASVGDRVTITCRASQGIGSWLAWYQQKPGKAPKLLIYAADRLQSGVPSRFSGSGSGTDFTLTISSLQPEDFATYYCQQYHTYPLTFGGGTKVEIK ?
**A:** < 7.30
